Data origin: patent US10071967B2

- Protocol Notes: log P by HPLC on a reversed-phase column (C 18), EEC Directive 79/831 Annex V.A8
- Type: physicochemical
- Reported Conditions: HPLC, reversed-phase column (C 18), 40° C.; 0.1% aqueous formic acid and acetonitrile, linear gradient 10% to 90% acetonitrile
Assay Metric: logP

[1] CCCC1(c2ccc(C)cc2CN(C(=O)c2cc(C)oc2C)C2CC2)CC1
[2] CCC1(c2ccc(C)cc2CN(C(=O)c2c(OC(F)F)nn(C)c2Cl)C2CC2)CC1
Prompt line: Please compare: 1 and 2 . Report which one has the smaller logP value. Write down the label of the entry you select.
Response line: 2
(2: 2.84, 1: 5.62)
